Biological target: T1, Claudin18.2 on cells (human, UniProt P56856-2 1-261)
T1 construct: whole, on cells; the cell line of each result is named under assay or readout
Assay: flow cytometry on 293T-Claudin18.2 cells, antibody at 1.5 µg/mL
Parameter: mean fluorescence intensity. Scope: all listed entries.
Lab note: record just the number, no unit beside it.

INSERT INTO measurements (binder, recorded_value) VALUES
  ('CLDQ1-CA841-IgG1 (antibody, V domains shown, Complete IgG1 made in HEK293 cells) VH: QVQLVQSGAEVKKPGSSVKVSCKASGGTFSSYAISWVRQAPGQGLEWMGRIIPILGIANYAQKFQGRVTVTADKSTSTAYMELSSLRSEDTAVYYCARERDNWDPYYYYYGMDVWGQGTTVTVSS VL: DIQMTQSPSTLSASVGDRVTITCRASQSINSWLAWYQQKPGKAPKLLIYKASSLESGVPSRFSGSGSGTEFTLTISSLQPDDFATYYCQQYNSFPLTFGGGTKVEIKR', 855000),
  ('CLD389-CA802-IgG1 (antibody, V domains shown, Complete IgG1 made in HEK293 cells) VH: QVQLVESGGGVVQPGRSLRLSCAASGFTFSSYAMHWVRQVPGKGLEWVAIISYDGSIKYYADSVKGQFTISRDNSKNTLSLQMNSLRPEDTAVYYCARDPTMVRGVRGMDVWGQGTTVTVSS VL: DIQMTQSPSSLSASVGDRVTITCRASQGIRNDLGWYQQKPGKAPKLLIYAASSLQSGVPSRFSGSGSGTDFTLTISSLQPEDFATYYCLQDYNYPLTFGGGTKLEIKR', '1.05e+06'),
  ('CLD389-279-IgG1 (antibody, V domains shown, Complete IgG1 made in HEK293 cells; also called C279; CLD389-C279) VH: EVQLVQSGGGVVQPGRSLRLSCAASGFTFSNYAMHWVRQAPGKGLEWVAVISYDGSNKYYADSVKGRFTISRDNSKNTLYLQMNSLRAEDTAVYYCARELRFFDWLLGRAFDIWGQGTMVTVSS VL: EIVMTQSPPSLSASVGDRVTITCRASQGIRNDLGWYQQKPGKAPKLLIYAASSLQSGVPSRFSGSGSGTDFTLTISSLQPEDFATYYCLQDYNYPWTFGQGTKLEIKR', '1.06e+06'),
  ('CLD389-CA852-IgG1 (antibody, V domains shown, Complete IgG1 made in HEK293 cells) VH: QVQLVESGGGVVQPGRSLRLSCAASGFTFSSYAMHWVRQAPGKGLEWVAVISYDGSKKYYADSVKGRFTISRDNSKNTLYLQMNSLRAEDTAVYYCARDPTMVRGVRGMDVWGQGTTVTVSS VL: EIVMTQSPSTLSASIGDRVTITCRASQGIRNDLGWYQQKPGKAPKLLIYAASSLQSGVPSRFSGSGSGTDFTLTISSLQPEDFATYYCLQDYNYPLTFGGGTKVEIKR', 578000);

Here's the next entry for you.
Problem: Identify measured mean fluorescence intensity associated with IMAB362 (antibody, human IgG1, kappa, V domains shown) VH: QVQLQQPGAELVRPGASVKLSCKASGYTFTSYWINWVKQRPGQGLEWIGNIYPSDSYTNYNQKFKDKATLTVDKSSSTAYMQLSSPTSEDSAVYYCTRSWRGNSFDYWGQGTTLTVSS VL: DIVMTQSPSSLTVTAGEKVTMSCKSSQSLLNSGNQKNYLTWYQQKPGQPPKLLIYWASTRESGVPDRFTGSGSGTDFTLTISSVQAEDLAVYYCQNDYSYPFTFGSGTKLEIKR
Solution: 849000
